Test system: biotinyl-Phe-oxazolone
Assay: self-aminoacylation, catalytic enhancement (BFO) (fold over background); higher = more active; k-Seq, kA / k0A0; sequences stand for … in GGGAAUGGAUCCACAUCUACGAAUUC…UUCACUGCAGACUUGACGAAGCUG
Fewer inactive variants are shown than the library holds.
readout-name: self-aminoacylation

CUACUUCAAACAAUCAGUCAG [Fam1A.1 aminoacylation ribozyme variant]; 6.15
AAGUUUGCUAAUAGUCCCCAG [Fam3.1 aminoacylation ribozyme variant]; 1.27
AUCACUCUGGUCAUCGAGUGA [Fam2.1 aminoacylation ribozyme variant]; 13.9
CUACUUCAAACAAUCUGUCUU [Fam1A.1 aminoacylation ribozyme variant]; 0.839
AUUACCCUAGUCAUCGAGUGA [Fam2.1 aminoacylation ribozyme variant]; 18
AUUACCCUGGGCAUCGAUUGA [Fam2.1 aminoacylation ribozyme variant]; 0.38
AUACUGCAAACAAUCGGUCUG [Fam1A.1 aminoacylation ribozyme variant]; 2.49
AUUGACCUAGUUCAUCGGGUG [Fam2.2 aminoacylation ribozyme variant]; 18.6
AUUACUCUGGUCAUCCAGUGA [Fam2.1 aminoacylation ribozyme variant]; 17.3

* * *

Quick list: self-aminoacylation per entry.
Tested on: biotinyl-Leu-oxazolone
Assay: self-aminoacylation, catalytic enhancement (BLO) (fold over background); higher = more active; k-Seq, kA / k0A0; sequences stand for … in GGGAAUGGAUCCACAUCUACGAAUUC…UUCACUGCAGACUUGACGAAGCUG
Variants at the floor of the assay were thinned out.
readout-name: self-aminoacylation

CUACUUCAAGCAAUCGGUCUU [Fam1A.1 aminoacylation ribozyme variant]; 0.97
AAGUUUGAUCAUAGUCGCAAG [Fam3.1 aminoacylation ribozyme variant]; 1.62
CCACGCUUCAAGCAAUCGGUC [Fam1B.1 aminoacylation ribozyme variant]; 2.11
CUACUUCACACAAUCGAUCUG [Fam1A.1 aminoacylation ribozyme variant]; 0.784
AUUCCCUUAGGUCAUCGGGUG [Fam2.2 aminoacylation ribozyme variant]; 44.3
AUGACCCCGGUCAUCGAGUGA [Fam2.1 aminoacylation ribozyme variant]; 8.55
AAGUUUGCUAAUAGUCAGAAG [Fam3.1 aminoacylation ribozyme variant]; 0.808
CCACACUUCAAGCAGUCGCUC [Fam1B.1 aminoacylation ribozyme variant]; 2.06
AAGUUUGCUAAUAGUCGCUAA [Fam3.1 aminoacylation ribozyme variant]; 1.2

* * *

Tested on: biotinyl-Leu-oxazolone
Test: self-aminoacylation, catalytic enhancement (BLO) (fold over background); higher = more active; k-Seq, kA / k0A0; sequences stand for … in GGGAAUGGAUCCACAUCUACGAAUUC…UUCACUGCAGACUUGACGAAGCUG
Variants at the floor of the assay were thinned out.
readout-name: self-aminoacylation

ACGUUUGCUAAUAGGCGCAAG [Fam3.1 aminoacylation ribozyme variant]; 1.67
AAGUGUCCUAAUAGUCGCAAG [Fam3.1 aminoacylation ribozyme variant]; 0.952
AUCACCCCGGUCAUCGAGUGA [Fam2.1 aminoacylation ribozyme variant]; 10.2
AUUACCCUGAUCAUAGAGUGA [Fam2.1 aminoacylation ribozyme variant]; 15.1
CUACUACAAACAAUCGGUCUG [Fam1A.1 aminoacylation ribozyme variant]; 0.608
ACUACCCUGGUGAUCGAGUGA [Fam2.1 aminoacylation ribozyme variant]; 7.61
GUUCACCUAGUUCAUCGGGUG [Fam2.2 aminoacylation ribozyme variant]; 2.37
AUUUACCAAGGUCAUCGGGUG [Fam2.2 aminoacylation ribozyme variant]; 9.69
AUUACCCUGGUCGUCGAAUGA [Fam2.1 aminoacylation ribozyme variant]; 0.734
CUUCACCUAGGUCAUCGCGUG [Fam2.2 aminoacylation ribozyme variant]; 13.6
ACUCACCUAGGUCAGCGGGUG [Fam2.2 aminoacylation ribozyme variant]; 4.43
CUACUUCAUACAACCGGUCUG [Fam1A.1 aminoacylation ribozyme variant]; 0.751
AUACACCUAGGUCAUAGGGUG [Fam2.2 aminoacylation ribozyme variant]; 1.36
AUUCCCCUGGUUAUCGAGUGA [Fam2.1 aminoacylation ribozyme variant]; 9.8
UUACUUCAAACAAUGGGUCUG [Fam1A.1 aminoacylation ribozyme variant]; 1.06
AUUCACCUAUGUCCUCGGGUG [Fam2.2 aminoacylation ribozyme variant]; 4.03
CCUCACUUCAAGCAAUCGAUC [Fam1B.1 aminoacylation ribozyme variant]; 0.453
AAGUUUGCUAAUAGUCGCUCG [Fam3.1 aminoacylation ribozyme variant]; 0.647
AUGCACCUAGGUCAGCGGGUG [Fam2.2 aminoacylation ribozyme variant]; 4.65
CUCCUUCAACCAAUCGGUCUG [Fam1A.1 aminoacylation ribozyme variant]; 1.33
GUUACCCUGGUCAGCGAGUGA [Fam2.1 aminoacylation ribozyme variant]; 6.76
AUUCCCCUACGUCAUCGGGUG [Fam2.2 aminoacylation ribozyme variant]; 20.9
AUUGACCUAGGUCACCGGGUG [Fam2.2 aminoacylation ribozyme variant]; 6.34
CCACACCUCAAGCUAUCGGUC [Fam1B.1 aminoacylation ribozyme variant]; 1.18
AUUCCCCUGGUCAUCGAGAGA [Fam2.1 aminoacylation ribozyme variant]; 1.17
AGUCACCUAGGUCAUCGGCUG [Fam2.2 aminoacylation ribozyme variant]; 2.27
AUUCACCUAGGUAUUCGGGUG [Fam2.2 aminoacylation ribozyme variant]; 5.02
AUUACCCUAGUCAUCGAGUGA [Fam2.1 aminoacylation ribozyme variant]; 5.12
AUUACCCUGGUCAUCGAGUUA [Fam2.1 aminoacylation ribozyme variant]; 10.3
AUUACGCUGGUCAUCGGGUGA [Fam2.1 aminoacylation ribozyme variant]; 7.84
UUACUUUAAACAAUCGGUCUG [Fam1A.1 aminoacylation ribozyme variant]; 0.878
CUACAAUUCAAGCAAUCGGUC [Fam1B.1 aminoacylation ribozyme variant]; 0.75
AAGUUUGCUAAUCGUCGCAUG [Fam3.1 aminoacylation ribozyme variant]; 0.957
AAGUUUGCUAGUACUCGCAAG [Fam3.1 aminoacylation ribozyme variant]; 0.773
AAGUUCGCUAAUACUCGCAAG [Fam3.1 aminoacylation ribozyme variant]; 1.2

* * *

Tested on: biotinyl-Ile-oxazolone
Test: self-aminoacylation, catalytic enhancement (BIO) (fold over background); higher = more active; k-Seq, kA / k0A0; sequences stand for … in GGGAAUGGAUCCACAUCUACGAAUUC…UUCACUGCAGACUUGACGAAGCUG
Fewer inactive variants are shown than the library holds.
readout-name: self-aminoacylation

AUCCACCUCGGUCAUCGGGUG [Fam2.2 aminoacylation ribozyme variant]; 5.06
CUAGUUCUAACAAUCGGUCUG [Fam1A.1 aminoacylation ribozyme variant]; 0.831
AUUCACCAAGGUCAUCGGUUG [Fam2.2 aminoacylation ribozyme variant]; 1.42
AUUACCCUAGUCAUUGAGUGA [Fam2.1 aminoacylation ribozyme variant]; 3.69
AUUCACCUAGGUCACCGGGGG [Fam2.2 aminoacylation ribozyme variant]; 3.62
CAGUUUGCUAAUAGGCGCAAG [Fam3.1 aminoacylation ribozyme variant]; 1.21
CAACACUUCAAGCAAUGGGUC [Fam1B.1 aminoacylation ribozyme variant]; 0.858
AAGUUUGCUGAUAGUCGCGAG [Fam3.1 aminoacylation ribozyme variant]; 1.75
AUUCACCUUUGUCAUCGGGUG [Fam2.2 aminoacylation ribozyme variant]; 3.14

* * *

Tested on: biotinyl-Val-oxazolone
Test: self-aminoacylation, catalytic enhancement (BVO) (fold over background); higher = more active; k-Seq, kA / k0A0; sequences stand for … in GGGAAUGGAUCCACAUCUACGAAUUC…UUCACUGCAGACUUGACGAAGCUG
This sample holds only a part of the variants without activity.
Cut-off 3 on self-aminoacylation, inclusive. At or above means Met; below means Not met.

AUUACCCUGGUCAUCCCGUGA [Fam2.1 aminoacylation ribozyme variant]; Met
CUACUUCAAACAAUCGGUAUC [Fam1A.1 aminoacylation ribozyme variant]; Not met
CUUCACCUAGGUCAUUGGGUG [Fam2.2 aminoacylation ribozyme variant]; Not met
CUACUUCAAACGAUCCGUCUG [Fam1A.1 aminoacylation ribozyme variant]; Not met
AUUCACCUAGGUCACCGCGUG [Fam2.2 aminoacylation ribozyme variant]; Met
ACUUCCCUGGUCAUCGAGUGA [Fam2.1 aminoacylation ribozyme variant]; Met
AUUACCCUGGUCAUAGGGUGA [Fam2.1 aminoacylation ribozyme variant]; Met
UUUCACCUAGGUCAUCGGGCG [Fam2.2 aminoacylation ribozyme variant]; Met

* * *

Tested on: biotinyl-Phe-oxazolone
Test: self-aminoacylation, catalytic enhancement (BFO) (fold over background); higher = more active; k-Seq, kA / k0A0; sequences stand for … in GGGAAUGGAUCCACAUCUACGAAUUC…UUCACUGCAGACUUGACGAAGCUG
Variants at the floor of the assay were thinned out.
Each entry belongs to exactly one class, chosen by where its self-aminoacylation falls: lowest = under 2, middle = from 2 up to 40, highest = 40 and over

AUUACCCUUGUCAUCGAGCGA [Fam2.1 aminoacylation ribozyme variant]; lowest
CUACUUCAACCAAUCGGUAUG [Fam1A.1 aminoacylation ribozyme variant]; middle
AUUCAUCUUGGUCAUCGGGUG [Fam2.2 aminoacylation ribozyme variant]; highest
CUCCACCUAGGUCAUCGGGUG [Fam2.2 aminoacylation ribozyme variant]; middle
AAGUUUGCUAAUAUCCGCAAG [Fam3.1 aminoacylation ribozyme variant]; lowest
CUACUACAAACAAUCGUUCUG [Fam1A.1 aminoacylation ribozyme variant]; lowest
AAGUUUGGUAAUAGCCGCAAG [Fam3.1 aminoacylation ribozyme variant]; lowest
AAUAUUGCUAAUAGUCGCAAG [Fam3.1 aminoacylation ribozyme variant]; middle
ACUUCCCUGGUCAUCGAGUGA [Fam2.1 aminoacylation ribozyme variant]; highest
AUUCACCUACGUCAUCGGGUG [Fam2.2 aminoacylation ribozyme variant]; middle
CUUCACCUACGUCAUCGGGUG [Fam2.2 aminoacylation ribozyme variant]; middle
UAGUUUGCUAAUCGUCGCAAG [Fam3.1 aminoacylation ribozyme variant]; lowest
CCCCAGUUCAAGCAAUCGGUC [Fam1B.1 aminoacylation ribozyme variant]; middle
AUUCCCCUAGUCAUCGAGUGA [Fam2.1 aminoacylation ribozyme variant]; highest
CUAAUUCAAACAAUCGGGCUG [Fam1A.1 aminoacylation ribozyme variant]; lowest
AUUCACCUAGGUCACCGUGUG [Fam2.2 aminoacylation ribozyme variant]; middle
ACUCGCCUAGGUCAUCGGGUG [Fam2.2 aminoacylation ribozyme variant]; highest
CCAUUUCAAACAAUCGGUCUG [Fam1A.1 aminoacylation ribozyme variant]; middle
